B1: KRT33B (parent)
chain: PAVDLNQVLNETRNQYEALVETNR

variants of: B1; assay: protein stability index of a GFP-peptide fusion (GPS, HEK-293T) (PSI 1-6); higher = more stable; settings: c terminus: a fixed tail appended;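 also: lentivirally expressed fusions sorted by FACS into six bins by GFP to DsRed ratio, PSI derived from sequencing read proportions per bin multiplied by bin number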

- variant annotation: "Y16K"
  protein stability index: 4.8
- variant annotation: "T12H"
  protein stability index: 2.84
- variant annotation: "R24T"
  protein stability index: 3.87
- variant annotation: "N14S"
  protein stability index: 3.04
- variant annotation: "N10E"
  protein stability index: 2.09
- variant annotation: "T22Y"
  protein stability index: 4.57
- variant annotation: "V8N"
  protein stability index: 4.83
- variant annotation: "V8W"
  protein stability index: 3.42
- variant annotation: "D4E"
  protein stability index: 3.86
- variant annotation: "Q7C"
  protein stability index: 3.57
- variant annotation: "N6V"
  protein stability index: 2.43
